Data provenance is patent US5795907A.

Recorded Kb by entry
assayTarget: gastrin (Rattus norvegicus)
Construct: The stomach was lowered into a jacketed organ bath containing 40 ml of buffered solution; from tissue; host or cells: isolated perfused whole stomach of immature rats (ca. 21 days old)
Sequence (P30553 whole entry, the tested form may be a part): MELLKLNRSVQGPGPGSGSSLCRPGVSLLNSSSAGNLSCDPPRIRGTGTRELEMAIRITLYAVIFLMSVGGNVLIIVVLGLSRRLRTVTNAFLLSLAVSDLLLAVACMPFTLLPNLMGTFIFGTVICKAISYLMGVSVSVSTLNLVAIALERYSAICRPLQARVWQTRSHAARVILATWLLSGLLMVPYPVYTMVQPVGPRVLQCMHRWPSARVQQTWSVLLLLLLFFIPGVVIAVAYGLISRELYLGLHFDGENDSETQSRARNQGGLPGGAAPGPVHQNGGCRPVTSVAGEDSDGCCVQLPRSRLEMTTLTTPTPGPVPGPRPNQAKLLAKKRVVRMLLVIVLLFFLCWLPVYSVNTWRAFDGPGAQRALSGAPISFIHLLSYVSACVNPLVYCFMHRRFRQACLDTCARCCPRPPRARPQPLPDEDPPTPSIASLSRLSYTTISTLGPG
assayInfo: gastrin antagonist activity in an immature rat stomach assay (pentagastrin-stimulated acid secretion)
conditionLabel: cumulative pentagastrin dose-response curves after 60 min with drug, read-out: Gastrin pKB (converted)
Procedure: The compounds of the examples were also tested for gastrin antagonist activity in an immature rat stomach assay. The procedure was as follows: […] After 120 min of stabilisation the drugs were added directly to the serosal solution in the organ bath and after a further 60 min cumulative pentagastrin dose-response curves were started. Changes in acid secretion were monitored and the curves analysed according to Black et.al., Br. J. Pharmacol., 1985, 86, 581.
valueType: Kb (nM)

- O=C(O)c1cc2ccccc2cc1C(=O)NCC12CC3CC(CC(C3)C1)C2: 1580
- O=C(O)c1cc(NC(=O)[C@H](Cc2ccccc2F)NC(=O)c2cc3[nH]cnc3cc2C(=O)NCC2CCCCCC2)cc(C(=O)O)c1: 15.8
- C[C@@H](NC(=O)c1cc2ccccc2cc1C(=O)NCC12CC3CC(CC(C3)C1)C2)C(=O)O: 158
- COC(=O)c1cc(NC(=O)[C@H](Cc2ccccc2)NC(=O)c2cc3cc[nH]c3cc2C(=O)NCC23CC4CC(CC(C4)C2)C3)cc(C(=O)OC)c1: 2
